# Read-out: Lipoprotein lipase (LPL), LPL (gene 4023)
# procedure summary: LTEA_HepaRG_LPL: Life Technologies and Expression Analysis (LTEA) Assay for Lipoprotein lipase (LPL) using HepaRG (AID 2283515)
# condition label: mRNA level, 48 h; actives raise or lower the signal
Calls of active or inactive are those of the source. The calls were made as follows: active = hit-call score of the fitted dose curve at least 0.9, where 1 is the maximum; inactive = score below 0.9.
Hello, when you answer, please use one of the following outcomes: active, inactive

// below: answered compounds
compound=N#CN=C1SCCN1Cc1ccc(Cl)nc1 class=inactive
compound="CC1(C)CCC(=Cc2ccc(Cl)cc2)C1(O)Cn1cncn1 (stereo not drawn)" class=inactive
compound="CCCC(=NOCC)C1=C(O)CC(CC(C)SCC)CC1=O (stereo not drawn)" class=inactive
compound=O=P(O)(O)CCCl class=inactive
compound=N#Cc1c[nH]cc1-c1cccc2c1OC(F)(F)O2 class=active

Q) Each compound tested received a call. Report the one for CCCN(CC)CC1COC2(CCC(C(C)(C)C)CC2)O1 (stereo not drawn) .
A) inactive

Q) COC(=O)NS(=O)(=O)c1ccc(N)cc1 , same question.
A) inactive

Q) CC(C)N1C(=O)N(c2ccccc2)CSC1=NC(C)(C)C , same question.
A) active

Q) Nc1cnn(-c2ccccc2)c(=O)c1Cl , same question.
A) inactive

Q) CCCCOCN(C(=O)CCl)c1c(CC)cccc1CC , same question.
A) inactive

Q) CC(C)C1(C)N=C(c2ncccc2C(=O)O)NC1=O (stereo not drawn) , same question.
A) inactive

----------
# procedure summary: ATG_SREBP_CIS: Attagene CIS-FACTORIAL HepG2 Assay for human Sterol Regulatory Element Binding (SREBP) (AID 2282962)
# condition label: HepG2 Attagene cis-factorial SREBP reporter, mRNA; actives raise or lower the signal
Calls of active or inactive are those of the source. How the source made its calls: active means hit-call score of the fitted dose curve at least 0.9, where 1 is the maximum; inactive means score below 0.9.
Hello, when you answer, please use one of the following outcomes: Y (active), N (inactive)

// below: answered compounds
compound="CCN(CC)C(=O)C(C)Oc1cccc2ccccc12 (centres undefined)" class=Y
compound="CCCN(CC)CC1COC2(CCC(C(C)(C)C)CC2)O1 (centres undefined)" class=Y
compound=COP(=O)(OC)O/C(C)=C/C(=O)N(C)C class=N
compound="CCCCC(O)(Cn1cncn1)c1ccc(Cl)cc1Cl (centres undefined)" class=N
compound=Cc1nc(N(C)C)nc(OC(=O)N(C)C)c1C class=N
compound=O=C(O)c1c(Cl)ccc2cc(Cl)cnc12 class=N
compound=COP(=S)(OC)SCn1nnc2ccccc2c1=O class=Y
compound=Cc1ccc(N=CN(C)C=Nc2ccc(C)cc2C)c(C)c1 class=N
compound=N#CN=C1SCCN1Cc1ccc(Cl)nc1 class=N
compound=CC(C)NC(=O)N1CC(=O)N(c2cc(Cl)cc(Cl)c2)C1=O class=N

Q) Each compound tested received a call. Report the one for CC(C)N1C(=O)c2ccccc2NS1(=O)=O .
A) Y

Q) Nc1cnn(-c2ccccc2)c(=O)c1Cl , same question.
A) N

Q) N#Cc1c[nH]cc1-c1cccc2c1OC(F)(F)O2 , same question.
A) N

Q) CSC(=O)c1c(C(F)F)nc(C(F)(F)F)c(C(=O)SC)c1CC(C)C , same question.
A) N

Q) CN/C(=N\[N+](=O)[O-])NCc1cnc(Cl)s1 , same question.
A) N

Q) N#Cc1c(Cl)cccc1Cl , same question.
A) N

Q) CCOP(=O)(OCC)Oc1nc(Cl)c(Cl)cc1Cl , same question.
A) Y

Q) CCOc1cc(C(C)(C)C)ccc1C1COC(c2c(F)cccc2F)=N1 (centres undefined) , same question.
A) N

Q) COC(=O)NC(=S)Nc1ccccc1NC(=S)NC(=O)OC , same question.
A) N

Q) COCC(C)N(C(=O)CCl)c1c(C)csc1C (centres undefined) , same question.
A) Y

Q) COc1cc(Cl)c(OC)cc1Cl , same question.
A) N

Q) CC1(C)C(C(=O)OC(C#N)c2cccc(Oc3ccccc3)c2)C1(C)C (centres undefined) , same question.
A) N

Q) CCCCC(C#N)(Cn1cncn1)c1ccc(Cl)cc1 (centres undefined) , same question.
A) Y

Q) O=c1n(Cl)c(=O)n(Cl)c(=O)n1Cl , same question.
A) N

Q) CCOc1nc(C(Cl)(Cl)Cl)ns1 , same question.
A) N

Q) COCC(=O)N(c1c(C)cccc1C)C(C)C(=O)OC (centres undefined) , same question.
A) N

Q) CC(C)N1C(=O)N(c2ccccc2)CSC1=NC(C)(C)C , same question.
A) N

Q) CCCCOCN(C(=O)CCl)c1c(CC)cccc1CC , same question.
A) N

Q) CCNC(=O)NC(=O)C(C#N)=NOC , same question.
A) N
